# System: hTERT-HMEC
# EXPERIMENT: percentage of EdU-negative (G0-arrested) nuclei per well, 72 h; higher = more G0 arrest
# MEASUREMENT SETUP: protein concentration 0.3125 µM; reference: sequence is the full UniProt precursor, the tested protein was the secreted form or ectodomain
# percentage of EdU-negative listing for each entry below
Write the answer as a number in %, unit excluded.

In plain terms, MWPLWRLVSLLALSQALPFEQRGFWDFTLDDGPFMMNDEEASGADTSGVLDPDSVTPTYSAMCPFGCHCHLRVVQCSDLGLKSVPKEISPDTTLLDLQNNDISELRKDDFKGLQHLYALVLVNNKISKIHEKAFSPLRKLQKLYISKNHLVEIPPNLPSSLVELRIHDNRIRKVPKGVFSGLRNMNCIEMGGNPLENSGFEPGAFDGLKLNYLRISEAKLTGIPKDLPETLNELHLDHNKIQAIELEDLLRYSKLYRLGLGHNQIRMIENGSLSFLPTLRELHLDNNKLARVPSGLPDLKLLQVVYLHSNNITKVGVNDFCPMGFGVKRAYYNGISLFNNPVPYWEVQPATFRCVTDRLAIQFGNYKK has a documented percentage of EdU-negative of 7.32

Measured percentage of EdU-negative, MDRAARCSGASSLPLLLALALGLVILHCVVADGNSTRSPETNGLLCGDPEENCAATTTQSKRKGHFSRCPKQYKHYCIKGRCRFVVAEQTPSCVCDEGYIGARCERVDLFYLRGDRGQILVICLIAVMVVFIILVIGVCTCCHPLRKRRKRKKKEEEMETLGKDITPINEDIEETNIA : 5.88

Field percentage of EdU-negative (entry MKTLFLGVTLGLAAALSFTLEEEDITGTWYVKAMVVDKDFPEDRRPRKVSPVKVTALGGGNLEATFTFMREDRCIQKKILMRKTEEPGKFSAYGGRKLIYLQELPGTDDYVFYCKDQRRGGLRYMGKLVGRNPNTNLEALEEFKKLVQHKGLSEEDIFMPLQTGSCVLEH [Q9NY56] ) reads 6.83

====

Recorded percentage of EdU-negative by entry
# Tested on: hTERT-HMEC
# EXPERIMENT: percentage of EdU-negative (G0-arrested) nuclei per well, 72 h; higher = more G0 arrest
# MEASUREMENT SETUP: protein concentration 0.0225 µM; reference: sequence is the full UniProt precursor, the tested protein was the secreted form or ectodomain

MRPLLVLLLLGLAAGSPPLDDNKIPSLCPGHPGLPGTPGHHGSQGLPGRDGRDGRDGAPGAPGEKGEGGRPGLPGPRGDPGPRGEAGPAGPTGPAGECSVPPRSAFSAKRSESRVPPPSDAPLPFDRVLVNEQGHYDAVTGKFTCQVPGVYYFAVHATVYRASLQFDLVKNGESIASFFQFFGGWPKPASLSGGAMVRLEPEDQVWVQVGVGDYIGIYASIKTDSTFSGFLVYSDWHSSPVFA [Q9BXJ0] ... 5.51%

Shifting focus to the sequence that follows.
percentage of EdU-negative measured on MKLAFLFLGPMALLLLAGYGCVLGASSGNLRTFVGCAVREFTFLAKKPGCRGLRITTDACWGRCETWEKPILEPPYIEAHHRVCTYNETKQVTVKLPNCAPGVDPFYTYPVAIRCDCGACSTATTECETI [Q86YW7] = 5.52%

====

# Tested on: hTERT-HMEC
# EXPERIMENT: percentage of EdU-negative (G0-arrested) nuclei per well, 72 h; higher = more G0 arrest
# MEASUREMENT SETUP: protein concentration 0.225 µM; reference: sequence is the full UniProt precursor, the tested protein was the secreted form or ectodomain
ENDPOINT NAME: percentage of EdU-negative (%)
API: value field is a number in %; no unit string.

So the reported percentage of EdU-negative for MIPLLLAALLCVPAGALTCYGDSGQPVDWFVVYKLPALRGSGEAAQRGLQYKYLDESSGGWRDGRALINSPEGAVGRSLQPLYRSNTSQLAFLLYNDQPPQPSKAQDSSMRGHTKGVLLLDHDGGFWLVHSVPNFPPPASSAAYSWPHSACTYGQTLLCVSFPFAQFSKMGKQLTYTYPWVYNYQLEGIFAQEFPDLENVVKGHHVSQEPWNSSITLTSQAGAVFQSFAKFSKFGDDLYSGWLAAALGTNLQVQFWHKTVGILPSNCSDIWQVLNVNQIAFPGPAGPSFNSTEDHSKWCVSPKGPWTCVGDMNRNQGEEQRGGGTLCAQLPALWKAFQPLVKNYQPCNGMARKPSRAYKI , on hTERT-HMEC, turned out to be 6.55

// percentage of EdU-negative (hTERT-HMEC) for MGTKAQVERKLLCLFILAILLCSLALGSVTVHSSEPEVRIPENNPVKLSCAYSGFSSPRVEWKFDQGDTTRLVCYNNKITASYEDRVTFLPTGITFKSVTREDTGTYTCMVSEEGGNSYGEVKVKLIVLVPPSKPTVNIPSSATIGNRAVLTCSEQDGSPPSEYTWFKDGIVMPTNPKSTRAFSNSSYVLNPTTGELVFDPLSASDTGEYSCEARNGYGTPMTSNAVRMEAVERNVGVIVAAVLVTLILLGILVFGIWFAYSRGHFDRTKKGTSSKKVIYSQPSARSEGEFKQTSSFLV [Q9Y624] = 5.1

Form field percentage of EdU-negative for item MRSLGALLLLLSACLAVSAGPVPTPPDNIQVQENFNISRIYGKWYNLAIGSTCPWLKKIMDRMTVSTLVLGEGATEAEISMTSTRWRKGVCEETSGAYEKTDTDGKFLYHKSKWNITMESYVVHTNYDEYAIFLTKKFSRHHGPTITAKLYGRAPQLRETLLQDFRVVAQGVGIPEDSIFTMADRGECVPGEQEPEPILIPRVRRAVLPQEEEGSGGGQLVTEVTKKEDSCQLGYSAGPCMGMTSRYFYNGTSMACETFQYGGCMGNGNNFVTEKECLQTCRTVAACNLPIVRGPCRAFIQLWAFDAVKGKCVLFPYGGCQGNGNKFYSEKECREYCGVPGDGDEELLRFSN on hTERT-HMEC: 5.52

Tested on hTERT-HMEC: MVTLRKRTLKVLTFLVLFIFLTSFFLNYSHTMVATTWFPKQMVLELSENLKRLIKHRPCTCTHCIGQRKLSAWFDERFNQTMQPLLTAQNALLEDDTYRWWLRLQREKKPNNLNDTIKELFRVVPGNVDPMLEKRSVGCRRCAVVGNSGNLRESSYGPEIDSHDFVLRMNKAPTAGFEADVGTKTTHHLVYPESFRELGDNVSMILVPFKTIDLEWVVSAITTGTISHTYIPVPAKIRVKQDKILIYHPAFIKYVFDNWLQGHGRYPSTGILSVIFSMHVCDEVDLYGFGADSKGNWHHYWENNPSAGAFRKTGVHDADFESNVTATLASINKIRIFKGR . Observed percentage of EdU-negative: 6.41

====

# Test system: hTERT-HMEC;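 further: secreted proteins added to cultured cells, EdU pulse at the end, nuclei found by Hoechst imaging, EdU status from nuclear versus surrounding ring intensity ratio, PBS as neutral control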
# EXPERIMENT: percentage of EdU-negative (G0-arrested) nuclei per well, 72 h; higher = more G0 arrest
# MEASUREMENT SETUP: protein concentration 0.0225 µM; reference: sequence is the full UniProt precursor, the tested protein was the secreted form or ectodomain
Measured percentage of EdU-negative accompanies every entry in the list below.
I only need the number, in %, no unit after it.

These recorded examples may help you get a feel for the data.
MAAPVPWACCAVLAAAAAVVYAQRHSPQEAPHVQYERLGSDVTLPCGTANWDAAVTWRVNGTDLAPDLLNGSQLVLHGLELGHSGLYACFHRDSWHLRHQVLLHVGLPPREPVLSCRSNTYPKGFYCSWHLPTPTYIPNTFNVTVLHGSKIMVCEKDPALKNRCHIRYMHLFSTIKYKVSISVSNALGHNATAITFDEFTIVKPDPPENVVARPVPSNPRRLEVTWQTPSTWPDPESFPLKFFLRYRPLILDQWQHVELSDGTAHTITDAYAGKEYIIQVAAKDNEIGTWSDWSVAAHATPWTEEPRHLTTEAQAAETTTSTTSSLAPPPTTKICDPGELGSGGGPSAPFLVSVPITLALAAAAATASSLLI ... 5
MAQHHLWILLLCLQTWPEAAGKDSEIFTVNGILGESVTFPVNIQEPRQVKIIAWTSKTSVAYVTPGDSETAPVVTVTHRNYYERIHALGPNYNLVISDLRMEDAGDYKADINTQADPYTTTKRYNLQIYRRLGKPKITQSLMASVNSTCNVTLTCSVEKEEKNVTYNWSPLGEEGNVLQIFQTPEDQELTYTCTAQNPVSNNSDSISARQLCADIAMGFRTHHTGLLSVLAMFFLLVLILSSVFLFRLFKRRQGRIFPEGSCLNTFTKNPYAASKKTIYTYIMASRNTQPAESRIYDEILQSKVLPSKEEPVNTVYSEVQFADKMGKASTQDSKPPGTSSYEIVI [Q9UIB8] ... 4.54
MKMRFLGLVVCLVLWTLHSEGSGGKLTAVDPETNMNVSEIISYWGFPSEEYLVETEDGYILCLNRIPHGRKNHSDKGPKPVVFLQHGLLADSSNWVTNLANSSLGFILADAGFDVWMGNSRGNTWSRKHKTLSVSQDEFWAFSYDEMAKYDLPASINFILNKTGQEQVYYVGHSQGTTIGFIAFSQIPELAKRIKMFFALGPVASVAFCTSPMAKLGRLPDHLIKDLFGDKEFLPQSAFLKWLGTHVCTHVILKELCGNLCFLLCGFNERNLNMSRVDVYTTHSPAGTSVQNMLHWSQAVKFQKFQAFDWGSSAKNYFHYNQSYPPTYNVKDMLVPTAVWSGGHDWLADVYDVNILLTQITNLVFHESIPEWEHLDFIWGLDAPWRLYNKIINLMRKYQ ... 4.11
MRNSYRFLASSLSVVVSLLLIPEDVCEKIIGGNEVTPHSRPYMVLLSLDRKTICAGALIAKDWVLTAAHCNLNKRSQVILGAHSITREEPTKQIMLVKKEFPYPCYDPATREGDLKLLQLMEKAKINKYVTILHLPKKGDDVKPGTMCQVAGWGRTHNSASWSDTLREVNITIIDRKVCNDRNHYNFNPVIGMNMVCAGSLRGGRDSCNGDSGSPLLCEGVFRGVTSFGLENKCGDPRGPGVYILLSKKHLNWIIMTIKGAV ... 5.3
MIFLLLMLSLELQLHQIAALFTVTVPKELYIIEHGSNVTLECNFDTGSHVNLGAITASLQKVENDTSPHRERATLLEEQLPLGKASFHIPQVQVRDEGQYQCIIIYGVAWDYKYLTLKVKASYRKINTHILKVPETDEVELTCQATGYPLAEVSWPNVSVPANTSHSRTPEGLYQVTSVLRLKPPPGRNFSCVFWNTHVRELTLASIDLQSQMEPRTHPTWLLHIFIPFCIIAFIFIATVIALRKQLCQKLYSSKDTTKRPVTTTKREVNSAI [Q9BQ51] ... 4.79
MARGGRGRRLGLALGLLLALVLAPRVLRAKPTVRKERVVRPDSELGERPPEDNQSFQYDHEAFLGKEDSKTFDQLTPDESKERLGKIVDRIDNDGDGFVTTEELKTWIKRVQKRYIFDNVAKVWKDYDRDKDDKISWEEYKQATYGYYLGNPAEFHDSSDHHTFKKMLPRDERRFKAADLNGDLTATREEFTAFLHPEEFEHMKEIVVLETLEDIDKNGDGFVDQDEYIADMFSHEENGPEPDWVLSEREQFNEFRDLNKDGKLDKDEIRHWILPQDYDHAQAEARHLVYESDKNKDEKLTKEEILENWNMFVGSQATNYGEDLTKNHDEL ... 4.56
MPGAAEALPTVTVTLVAGAVPPASGALTAHCIGGFWREVGVASDQSLVLTAPKRVEGLFLTLSGSNLTVKVAYNSSGSCEIEKIVGSEIDSTGKFAFPGHREIHVLDTDYEGYAILRVSLMWRGRNFRVLKYFTRSLEDKDRLGFWKFRELTADTGLYLAARPGRCAELLKEELI [Q6JVE9] ... 5.03
MVPEEEPQDREKGLWWFQLKVWSMAVVSILLLSVCFTVSSVVPHNFMYSKTVKRLSKLREYQQYHPSLTCVMEGKDIEDWSCCPTPWTSFQSSCYFISTGMQSWTKSQKNCSVMGADLVVINTREEQDFIIQNLKRNSSYFLGLSDPGGRRHWQWVDQTPYNENVTFWHSGEPNNLDERCAIINFRSSEEWGWNDIHCHVPQKSICKMKKIYI [Q8WTT0] ... 4.78

Reported percentage of EdU-negative ( MEEAILVPCVLGLLLLPILAMLMALCVHCHRLPGSYDSTSSDSLYPRGIQFKRPHTVAPWPPAYPPVTSYPPLSQPDLLPIPRSPQPLGGSHRTPSSRRDSDGANSVASYENEGASGIRGAQAGWGVWGPSWTRLTPVSLPPEPACEDADEDEDDYHNPGYLVVLPDSTPATSTAAPSAPALSTPGIRDSAFSMESIDDYVNVPESGESAEASLDGSREYVNVSQELHPGAAKTEPAALSSQEAEEVEEEGAPDYENLQELN ) = 5.1

Reported percentage of EdU-negative of MWLLPALLLLCLSGCLSLKGPGSVTGTAGDSLTVWCQYESMYKGYNKYWCRGQYDTSCESIVETKGEEKVERNGRVSIRDHPEALAFTVTMQNLNEDDAGSYWCKIQTVWVLDSWSRDPSDLVRVYVSPAITTPRRTTHPATPPIFLVVNPGRNLSTGEVLTQNSGFRLSSPHFLLVVLLKLPLLLSMLGAVFWVNRPQWAPPGR [Q496F6] : 5.54

Given item MKITGGLLLLCTVVYFCSSSEAASLSPKKVDCSIYKKYPVVAIPCPITYLPVCGSDYITYGNECHLCTESLKSNGRVQFLHDGSC , the value recorded as its percentage of EdU-negative is 5.21

Value of measured percentage of EdU-negative for the entry MRKMNTLLLVSLSFLYLKEVMGLKCNTCIYTEGWKCMAGRGTCIAKENELCSTTAYFRGDKHMYSTHMCKYKCREEESSKRGLLRVTLCCDRNFCNVF [P0C8F1] : 4.34
